Hello, the source for this data is patent US6011000A, in case you need it.

- System: human erythroid cells
- procedure.details: DNA fragmentation by flow cytometry (degradation of DNA)
- Format: cell-based
- reported.conditions: 2.0 mM, 4 days; control 26%, 22%
- Protocol: Such activities might limit their utility for treatment of anemias such as occur in thalassemia, but alternatively would be useful for anticancer effects. To determine cell viability, human erythroid cells were cultured in the presence and absence of these compounds for 4 days and the amount of DNA fragmentation which occurred was measured. Flow cytometric determination of DNA profiles and DNA fragmentation were determined. […]
measured.property: Degraded DNA (%)
Answer with a number only, understood to be in %.

Enquiry: Fill in the recorded Degraded DNA for this compound, with human erythroid cells as test system: CCCC(=O)OCC
Return: 13.8

Enquiry: Lab request: please report Degraded DNA under test system human erythroid cells for CCCC(=O)O [AB, arginine butyrate]
Return: 44

Enquiry: Notebook entry, human erythroid cells assay: Degraded DNA of CC(C)C(N)=O [IBT, isobutyramide] = ?
Return: 34

Enquiry: # get_value(readout= Degraded DNA, system= human erythroid cells) for O=C(O)COc1ccccc1
Return: 20.6

====

- Test system: fetal globin mRNA (human erythroleukemia cells)
- procedure.details: Fetal globin mRNA in erythroleukemia cells (primer extension)
- Assay type: cell-based
- reported.conditions: 1.0 mM, 4 days; untreated 0.46
Could you please report measured Gamma/Alpha for the items listed next?
Give your answer as a number; write no unit.

Enquiry: Recorded Gamma/Alpha for O=C(O)COc1ccccc1 , please?
Return: 0.70

Enquiry: // returns reported Gamma/Alpha for input CCCC(=O)OCC
Return: 0.90

Enquiry: Sample CCCC(=O)O [AB, arginine butyrate] — what was its Gamma/Alpha?
Return: 0.66

Enquiry: Consider the compound shown here: CCCC(=O)OCC(O)CO (stereo not shown) What is its recorded Gamma/Alpha?
Return: 0.73

====

- System: human erythroid cells
- procedure.details: DNA fragmentation by flow cytometry (degradation of DNA)
- Format: cell-based
- reported.conditions: DNA fragmentation assays
measured.property: DNA fragmentation / cell viability / DNA integrity

[
  {
    "compound": "CCCC(=O)OCC",
    "value.measured": "reduce DNA fragmentation"
  },
  {
    "compound": "CC(C)C(N)=O [IBT, isobutyramide]",
    "value.measured": "decrease cell viability"
  },
  {
    "compound": "CCCC(=O)O [AB, arginine butyrate]",
    "value.measured": "decrease cell viability"
  },
  {
    "compound": "O=C(O)COc1ccccc1",
    "value.measured": "reduce DNA fragmentation"
  }
]
